test system: Escherichia coli TOP10; assay: shrunken log2 fold change of peptide-encoding DNA abundance (4.5 h post-induction vs induction); higher = less antimicrobial activity (less host growth inhibition); conditions: time post-induction: 4.5 h; library: site-saturation at positions 5, 18, 19, 20;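 further: peptides expressed intracellularly from a pBAD plasmid library in pooled LB shake-flask culture, induced with 0.3% L-arabinose, DNA abundance read by NGS, three biological replicates, DESeq2 with apeglm shrinkage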
Listed here: items and their measured shrunken log2 fold change.
// response body must contain only the number

- RRIRVRPPRLPRPRPRPQKAPRP: -0.0576

RRIRYRPPRLPRPRPRPATNPRP has a reported shrunken log2 fold change of -0.387

RRIRARPPRLPRPRPRPRDQPRP has a reported shrunken log2 fold change of 0.499

RRIRGRPPRLPRPRPRPGCCPRP has a reported shrunken log2 fold change of 1.2

RRIRSRPPRLPRPRPRPWTVPRP has a reported shrunken log2 fold change of -0.0297

RRIRPRPPRLPRPRPRPLYYPRP has a reported shrunken log2 fold change of -0.985

RRIRGRPPRLPRPRPRPFVPPRP has a reported shrunken log2 fold change of 0.0587

RRIRDRPPRLPRPRPRPPQFPRP has a reported shrunken log2 fold change of -0.15
